# Tested on: DU-145 prostate
# Protocol text: NCI tumour cell line growth inhibition, 48 h
Result type: TGI

Guide cases for TGI, answers given:
1. COc1ccc(C2=C(c3ccccc3)C(=O)N3CCCC3C2)cc1 (stereo not drawn)	> 100 µM
2. COC(C)=NCCC1=CCCCC1	> 100 µM
3. CN1N=C(c2ccncc2)OC1c1cccc(F)c1 (stereo not drawn)	> 100 µM
4. Cc1cc(NS(=O)(=O)c2ccc(NO)cc2)no1	> 100 µM
5. CNC(=O)/C=C/C1=CN2C(=O)c3ccc(C)c(O)c3NC(OC)C2C1 (stereo not drawn)	< 0.01 µM
6. Cc1n[nH]c(=O)n1/N=C/c1ccco1	> 100 µM
7. O=C(CCN1CCCCC1)c1csc2ccccc12	> 100 µM
8. O=C(c1ccccc1)c1ccc(N2C(=O)/C(=C/c3cccc(Oc4ccccc4)c3)N=C2c2ccccc2)c(N2C(=O)/C(=C/c3cccc(Oc4ccccc4)c3)N=C2c2ccccc2)c1	> 100 µM
9. C/C(=C\[Si](C)(C)c1ccco1)C(C)(O)[C@H](C)O (stereo partly drawn)	> 100 µM
10. COc1cccc(CCn2c(N)c(-c3cc(Cl)cc(Cl)c3)c3ccc([N+](=O)[O-])cc3c2=O)c1	> 25.3 µM

Prompt: Would you mind telling me what TGI value was observed for Cc1[nH]c(C(=O)Nc2cccc(OC3CCNCC3)c2)c(Cl)c1Cl ?
Response: 3.52 µM

Prompt: Would you mind telling me what TGI value was observed for Cn1c2c(c3ccccc31)CCN1C[C@@H]3CCCC[C@H]3C[C@@H]21 ?
Response: 5.8 µM

Prompt: Would you mind telling me what TGI value was observed for COc1cccc(C(=O)NNc2nc(Cl)nc(N3CCN(C(c4ccccc4)c4ccccc4)CC3)n2)c1 ?
Response: 15.3 µM

Prompt: Would you mind telling me what TGI value was observed for CCOC(=O)/C=C(/C(=O)OCC)n1ccc(=O)n(Cc2cn(CCCCOC(C)=O)nn2)c1=O ?
Response: > 100 µM

Prompt: Would you mind telling me what TGI value was observed for C/C=C\C1OC1(C)c1cc(=O)c2c(C)cc3c(c2o1)C(=O)c1c(O)c(C2CC(C)(N(C)C)C(OC(C)=O)C(C)O2)cc(C2CC(N(C)C)C(O)C(C)O2)c1C3=O (stereo not drawn) ?
Response: 0.0912 µM

Prompt: Would you mind telling me what TGI value was observed for COc1ccc(OC(=O)N2C/C(=C\c3ccccc3)C(=O)/C(=C/c3ccccc3)C2)cc1 ?
Response: 65.1 µM

Prompt: Would you mind telling me what TGI value was observed for Cc1cn(C2CC(O)C(Cn3nncc3Cn3cnc4c(N)ncnc43)O2)c(=O)[nH]c1=O (stereo not drawn) ?
Response: > 100 µM

Prompt: Would you mind telling me what TGI value was observed for NC(=O)C1=C(O)[C@@]2(O)C(=O)C3=C(O)c4c(O)cccc4CC3C[C@H]2CC1=O (stereo partly drawn) ?
Response: 18.6 µM

* * *

# Tested on: NCI-H460 lung
# Protocol text: NCI tumour cell line growth inhibition, 48 h
Result type: TGI

Guide cases for TGI, answers given:
1) CC(=O)OC(C(=O)[O][Ge]([CH3])([CH3])[CH3])c1ccccc1 (centres undefined)	> 100 µM
2) CCOC(=O)c1sc2nc(SC)nc3c2c1NC(=O)CN3c1ccc(F)cc1	> 100 µM
3) CC[O-].CC[O-].O=C1C=C([O-])C(=O)c2ccccc21.O=C1C=C([O-])C(=O)c2ccccc21.[Ti+4]	> 92.9 µM

Now take the following compound into account.
Prompt: Would you mind telling me what TGI value was observed for N#CCCC(C#N)(C#N)CCC#N ?
Response: > 100 µM
